protocol-text: amyloid nucleation score (Sup35N fusion, yeast selection) (log enrichment); library NNK2; higher = more nucleation; inactive = no reads after selection;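 further: zero at mode of non-aggregating sequences after 7 days selection at 30°C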
Classification field: t = amyloid nucleation score at or over -0.8; f = amyloid nucleation score under -0.8.

Sample answers from the record:
| substance | assigned-category |
| --- | --- |
| LHIFSSWTRW | t |
| VSISCSVWIMGRVYLIRYSG | f |
| VRSISASLSAMIYR | f |

Task: Could you verify whether the entry FKHLLSMVIVECFIVIVILC shows amyloid nucleation score of no less than -0.8?
Result: t

Task: // same read-out, input: GFWFFIYVDCVLCVSPTRIN
Result: t

Task: // same read-out, input: SGYGAAITVNFDITEHGGM
Result: t

Task: // same read-out, input: TCVLKVFVL
Result: f

Task: // same read-out, input: VALQWMG
Result: t

Task: // same read-out, input: YMYPWGP
Result: t

###

protocol-text: amyloid nucleation score (Sup35N fusion, yeast selection) (log enrichment); library NNK2; higher = more nucleation; inactive = no reads after selection

| entry-sequence | amyloid nucleation score |
| --- | --- |
| FLMACPMFIIVYLCRT | inactive |
| RAWETNFRVTTLDCNNYSSS | inactive |
| GIMYGEFMPLR | inactive |

###

Recorded amyloid nucleation score values for a group of sequences are listed next.
protocol-text: amyloid nucleation score (Sup35N fusion, yeast selection) (log enrichment); library NNK2; higher = more nucleation; inactive = no reads after selection
In your answer, state the number alone without any accompanying words.

Take a look at these entries with their results.
| entry-sequence | amyloid nucleation score |
| --- | --- |
| LGRCSALGYIRISCTMKGAG | 0.21 |
| TMGTSSLVSAQLICRGTLAK | 0.172 |
| ESFAFELTVLHIS | 1.11 |

Task: So what does the record say about amyloid nucleation score for MFWRSYNWDFSCYCNCSRGR ?
Result: 5.05

###

protocol-text: amyloid nucleation score (Sup35N fusion, yeast selection) (log enrichment); library NNK1; higher = more nucleation; inactive = no reads after selection
Recorded amyloid nucleation score values for a group of sequences are listed next.
In your answer, state the number alone without any accompanying words.

Take a look at these entries with their results.
| entry-sequence | amyloid nucleation score |
| --- | --- |
| QLVGFVVPRRSSPGVHTGEC | 1.21 |
| HLDGSVISNSMVNIVFLSLV | 5.71 |
| EKWKKAAIWFFLSYWLAVWR | -0.301 |

Task: So what does the record say about amyloid nucleation score for LGESREVSGHDNRCWAFQ ?
Result: 0.594

###

protocol-text: amyloid nucleation score (Sup35N fusion, yeast selection) (log enrichment); library NNK1; higher = more nucleation; inactive = no reads after selection
Recorded amyloid nucleation score values for a group of substances are listed next.
In your answer, state the number alone without any accompanying words.

Take a look at these entries with their results.
| substance | value-observed |
| --- | --- |
| YTRMICGSMMGGVMREMRIM | 0.739 |
| VRLIRGGFDGHADNAVCRWQ | 0.279 |

Task: So what does the record say about amyloid nucleation score for GVRYQALFLSAVL ?
Result: 0.09

Task: // same read-out, input: YYNFLLIIFNCCKVMS
Result: 3.5

Task: // same read-out, input: VGFVATNCRWSCFS
Result: 5.5

Task: // same read-out, input: VSYYITCRGKVETIALADRM
Result: 0.088

Task: // same read-out, input: DTYKSPKHYRRL
Result: 0.608

Task: // same read-out, input: QGSDSSNEATTAPLCRLRIW
Result: 1.11

Task: // same read-out, input: ASAFFRVWSLNKIICYEVSD
Result: 4.56

Task: // same read-out, input: FVVRLRLLANLWWYNCCKCS
Result: 0.748

###

protocol-text: amyloid nucleation score (Sup35N fusion, yeast selection) (log enrichment); library NNK3; higher = more nucleation; inactive = no reads after selection
assay-readout: amyloid nucleation score

Take a look at these entries with their results.
| entry-sequence | value-observed |
| --- | --- |
| LLYMSECNELSIDRLVNLSK | inactive |
| YMNSVACSEMFSFSGLWEWW | inactive |
| LLNTRGSRVMLLGHRLFDN | inactive |
| MYLFRENGHQSGNVY | inactive |
| SRISKMSELIYRLRYIVILV | inactive |

Task: So what does the record say about amyloid nucleation score for DAHNRASLSYVPSYYVSFTA ?
Result: inactive

Task: // same read-out, input: SNDHKITD
Result: inactive

Task: // same read-out, input: IFLKNCLLWKTAGSFMNSIA
Result: inactive

Task: // same read-out, input: NWFTMSNFMFYRTFCFIYSS
Result: inactive

Task: // same read-out, input: CGGAMMKN
Result: inactive

Task: // same read-out, input: NTQNLNRVVCLGL
Result: inactive

###

Recorded amyloid nucleation score values for a group of substances are listed next.
protocol-text: amyloid nucleation score (Sup35N fusion, yeast selection) (log enrichment); library NNK2; higher = more nucleation; inactive = no reads after selection
In your answer, state the number alone without any accompanying words.

| substance | amyloid nucleation score |
| --- | --- |
| RLHRTILHVSRTGQFGAHQC | 0.989 |
| GKSSHG | 0.93 |
| KILGWT | 0.836 |

Task: So what does the record say about amyloid nucleation score for KRGMRRKGDFTERKVETLVG ?
Result: 2.39

Task: // same read-out, input: ATGMIPVNLQATIWEVHEVG
Result: 2.68

Task: // same read-out, input: FHFKLRGWPGRGVTSMGS
Result: -0.873

###

protocol-text: amyloid nucleation score (Sup35N fusion, yeast selection) (log enrichment); library NNK1; higher = more nucleation; inactive = no reads after selection
Recorded amyloid nucleation score values for a group of substances are listed next.
In your answer, state the number alone without any accompanying words.

Take a look at these entries with their results.
| substance | value-observed |
| --- | --- |
| YFVFFLRDLFWRRKI | 0.408 |
| RNNQSHGMNYFFESCVVFYC | 7.8 |
| SGLLVITFVNEFLYKNVYPL | 1.95 |

Note: attention shifts to another entry.
Task: So what does the record say about amyloid nucleation score for MIKSPTVKGFRMLCSVRGRD ?
Result: -0.284

###

protocol-text: amyloid nucleation score (Sup35N fusion, yeast selection) (log enrichment); library NNK3; higher = more nucleation; inactive = no reads after selection

| entry-sequence | amyloid nucleation score |
| --- | --- |
| STSNFYLWGKPNVLAGMR | inactive |
| ISRSGNLLGYKDLLVATKSG | inactive |
| HLLPLYTKSIVGYTTNAIPN | inactive |
| LVLSWWYMMFFRFDGV | inactive |

###

protocol-text: amyloid nucleation score (Sup35N fusion, yeast selection) (log enrichment); library NNK2; higher = more nucleation; inactive = no reads after selection
assay-readout: amyloid nucleation score

| entry-sequence | value-observed |
| --- | --- |
| CTFLRNIGFLYWYVSPLNLG | inactive |
| VLFDGKPMEVFFWCLPEWVF | inactive |
| TTGRTYIRLIYIMCVSMNVS | inactive |

###

protocol-text: amyloid nucleation score (Sup35N fusion, yeast selection) (log enrichment); library NNK2; higher = more nucleation; inactive = no reads after selection

| substance | amyloid nucleation score |
| --- | --- |
| FNLMLI | inactive |
| MVVYRVPMAQLLPS | inactive |
| PYLGRFFSCLYTEWDTP | inactive |

###

protocol-text: amyloid nucleation score (Sup35N fusion, yeast selection) (log enrichment); library NNK1; higher = more nucleation; inactive = no reads after selection

| entry-sequence | amyloid nucleation score |
| --- | --- |
| LSNLDMVM | inactive |
| VGNWYPGIG | inactive |
| YCVTSMVRRLVKMLYDCRGV | inactive |

###

protocol-text: amyloid nucleation score (Sup35N fusion, yeast selection) (log enrichment); library NNK1; higher = more nucleation; inactive = no reads after selection

| entry-sequence | amyloid nucleation score |
| --- | --- |
| YGRATIWNYKSSMDGPKNGK | inactive |
| INQKSMMSSSDWRRWYFSGR | inactive |
| EVVFNYTKHQVTIAV | inactive |

###

protocol-text: amyloid nucleation score (Sup35N fusion, yeast selection) (log enrichment); library NNK1; higher = more nucleation; inactive = no reads after selection

| entry-sequence | amyloid nucleation score |
| --- | --- |
| IKISYEIQAMAVLGM | inactive |
| WVHMFMHDYNMRYTFSVYMC | inactive |
| AGKGLAEARTYS | inactive |
| LLRLLVRAVMFFWAWGSRGA | inactive |

###

protocol-text: amyloid nucleation score (Sup35N fusion, yeast selection) (log enrichment); library NNK3; higher = more nucleation; inactive = no reads after selection
assay-readout: amyloid nucleation score

Take a look at these entries with their results.
| substance | amyloid nucleation score |
| --- | --- |
| ARSIFEVTRHEAAGRMSVFS | -0.01 |
| AVRMICDSCAYSLPTWVDLA | -0.592 |
| DTYMISNVAGNSRYALHGFV | inactive |
| GGRVNWM | inactive |

Task: So what does the record say about amyloid nucleation score for IRSILW ?
Result: inactive

Task: // same read-out, input: RTTKSNYTVLLDQNIPLSPT
Result: inactive

Task: // same read-out, input: LSSDGFYFNTEYL
Result: inactive

Task: // same read-out, input: VFMGQDLWMSLGAEDEDLAW
Result: inactive

Task: // same read-out, input: VTGHLGKG
Result: inactive

Task: // same read-out, input: PFVFTLNDQCGGIRSLICVL
Result: inactive

Task: // same read-out, input: VKVCEVSMQNRIFTGHAHFS
Result: inactive

Task: // same read-out, input: MTDFKSTLSTTSMFTGESLI
Result: inactive

Task: // same read-out, input: CQVGRKRLLYVFTGYK
Result: inactive

Task: // same read-out, input: SLVMAEVITPIGLSFCSNYT
Result: inactive

Task: // same read-out, input: YLNSDYSMKFTRWY
Result: 1.1
